Please go through the items and note down their Emax.
molecular target: M4 muscarinic receptor (Homo sapiens); construct: expressed in transfected cells; host or cells: CHO (M4-CHO); test: Functional mobilization of intracellular calcium (FLIPR), M4-CHO cells; type: cell-based; conditions: 100% efficacy = maximum response obtained with the Carbachol control
Sequence (P08173 whole entry): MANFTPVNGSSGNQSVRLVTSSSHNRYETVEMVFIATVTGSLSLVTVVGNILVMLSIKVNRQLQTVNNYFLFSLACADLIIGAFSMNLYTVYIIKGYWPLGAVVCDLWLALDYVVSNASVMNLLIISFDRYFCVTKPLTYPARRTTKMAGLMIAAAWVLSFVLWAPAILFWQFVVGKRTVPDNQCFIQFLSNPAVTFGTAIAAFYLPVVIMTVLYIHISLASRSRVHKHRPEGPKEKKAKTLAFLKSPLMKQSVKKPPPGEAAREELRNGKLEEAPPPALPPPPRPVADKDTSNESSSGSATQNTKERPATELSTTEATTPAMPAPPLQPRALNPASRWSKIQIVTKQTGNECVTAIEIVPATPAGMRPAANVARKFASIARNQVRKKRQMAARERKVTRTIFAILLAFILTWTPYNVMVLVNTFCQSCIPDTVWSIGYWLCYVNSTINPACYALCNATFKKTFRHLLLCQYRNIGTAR

The cases that follow already have their Emax on record.
# compound, experimental-system, recorded-value
rows = [
    ("COc1ccc(F)cc1C1CCN(C2CCOCC2)CC1 [Compound 193]", "M4 muscarinic receptor (Homo sapiens)", "25 to 100%"),
    ("COc1ccccc1C1CCN(CC2CCCOC2)CC1 (stereo not drawn) [Compound 2]", "M4 muscarinic receptor (Homo sapiens)", "25 to 100%"),
    ("COc1ccc(Cl)cc1C1(OC)CCN(C2CCOCC2)CC1 [Compound 201]", "M4 muscarinic receptor (Homo sapiens)", "< 25%"),
    ("COc1ccc(F)cc1C1(F)CCN(C2CCOCC2)CC1 [Compound 314]", "M4 muscarinic receptor (Homo sapiens)", "25 to 100%"),
    ("COc1ccc(C2CCN(C3C[C@H]4CC[C@H](C3)C4)CC2)c(C)c1 (stereo partly drawn) [Compound 244]", "M4 muscarinic receptor (Homo sapiens)", "< 25%"),
    ("COc1ccc(-c2ccccc2C2CCN([C@H]3C[C@H]4CC[C@H]3C4)CC2)cc1 [Compound 241]", "M4 muscarinic receptor (Homo sapiens)", "25 to 100%"),
    ("CCCC1CCC(N2CCC(F)(c3cc(F)ccc3OC)CC2)CC1 (stereo not drawn) [Compound 327]", "M4 muscarinic receptor (Homo sapiens)", "25 to 100%"),
    ("CCOC(=O)N1CCC(CN2CCC(c3cc(C(F)(F)F)ccc3C)CC2)CC1 [Compound 94]", "M4 muscarinic receptor (Homo sapiens)", "25 to 100%"),
    ("COc1ccc(Cl)cc1C1(O)CCN(C2CCOCC2)CC1 [Compound 304]", "M4 muscarinic receptor (Homo sapiens)", "25 to 100%"),
    ("COc1ccc(-c2ccc(C(=O)Nc3nccs3)cc2)cc1C1CCN(C2CC3CCC(C3)C2)CC1 (stereo not drawn) [Compound 313]", "M4 muscarinic receptor (Homo sapiens)", "< 25%"),
]

Lab note: each compound below needs its Emax filled in.
1. COc1ccccc1C1CCN(CC2CC3CCC(C3)C2)CC1 (stereo not drawn) [Compound 28]
2. Cc1ccccc1C1CCN(C2CC3CCC2C3)CC1 (stereo not drawn) [Compound 180]
3. COc1ccccc1C1CCN(C2CCCC3(CCCCC3)C2)CC1 (stereo not drawn) [Compound 199]
4. COc1ccc(F)cc1C1CCN(C2CCCCCC2)CC1 [Compound 176]

Reply:
["< 25%", "25 to 100%", "< 25%", "25 to 100%"]

---

target: M1 muscarinic receptor (Homo sapiens); construct: expressed in transfected cells; host or cells: CHO (M1-CHO); test: Functional mobilization of intracellular calcium (FLIPR), M1-CHO cells; format: cell-based; details: 100% efficacy = maximum response obtained with the Carbachol control
Sequence (P11229 whole entry): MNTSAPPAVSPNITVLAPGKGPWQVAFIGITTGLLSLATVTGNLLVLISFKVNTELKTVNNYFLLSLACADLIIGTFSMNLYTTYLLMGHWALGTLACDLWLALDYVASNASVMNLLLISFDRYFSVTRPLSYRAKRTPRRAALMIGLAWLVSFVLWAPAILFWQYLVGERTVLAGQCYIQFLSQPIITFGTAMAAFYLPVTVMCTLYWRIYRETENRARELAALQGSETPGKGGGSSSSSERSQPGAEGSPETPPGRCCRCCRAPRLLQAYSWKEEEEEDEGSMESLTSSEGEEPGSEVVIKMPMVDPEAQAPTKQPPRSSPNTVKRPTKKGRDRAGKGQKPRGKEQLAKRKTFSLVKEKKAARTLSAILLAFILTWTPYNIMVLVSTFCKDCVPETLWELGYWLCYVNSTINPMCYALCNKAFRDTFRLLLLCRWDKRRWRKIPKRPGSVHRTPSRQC
quantity-name: Emax

The cases that follow already have their Emax on record.
# compound, Emax
rows = [
    ("COc1ccc(Cl)cc1C1(O)CCN(C2CCOCC2)CC1", "< 25%"),
    ("COc1ccccc1C1CCN(C2CCCCCC2)CC1", "25 to 100%"),
    ("COc1ccc(Cl)cc1C1(O)CCN(C2CC3CCC2C3)CC1 (centres unmarked)", "< 25%"),
    ("CCOC(=O)N1CCC(CN2CCC(c3cc(-c4ccc5c(c4)OCO5)ccc3OC)CC2)CC1", "25 to 100%"),
]

Ask: Output Emax of `CCOC(=O)N1CCC(CN2CCC(c3cc(-c4ccc(S(C)(=O)=O)cc4)ccc3OC)CC2)CC1`
Reply: 25 to 100%

---

molecular target: M4 muscarinic receptor (Homo sapiens); construct: expressed in transfected cells; host or cells: CHO (M4-CHO); assay: Functional mobilization of intracellular calcium (FLIPR), M4-CHO cells; type: cell-based; details: 100% efficacy = maximum response obtained with the Carbachol control
Please go through the items and note down their Emax.

Lab note: each compound below needs its Emax filled in.
1. COc1ccc(C(C)=O)cc1C1CCN([C@H]2C[C@H]3CC[C@H]2C3)CC1
2. Cc1ccccc1C1CCN(C2CCOCC2)CC1

Reply:
< 25%
25 to 100%

---

biological target: M4 muscarinic receptor (Homo sapiens); construct: expressed in transfected cells; host or cells: CHO (M4-CHO); experiment: Functional mobilization of intracellular calcium (FLIPR), M4-CHO cells; format: cell-based; details: 100% efficacy = maximum response obtained with the Carbachol control
Please go through the items and note down their Emax.

# molecule, quantity-name, recorded-value
data = [
    ("COc1ccccc1C1CCN(C2CC3CCC2O3)CC1 (stereo not drawn) [Compound 312]", "Emax", "< 25%"),
]

Lab note: each molecule below needs its Emax filled in.
1. COc1ccccc1C1CCN(C2CCOCC2)CC1O (stereo not drawn) [Compound 235]
2. COc1ccc(Cl)cc1C1CCN(C2(C)CCCCC2)CC1 [Compound 300]
3. Cc1ccccc1-c1ccccc1C1CCN([C@H]2C[C@H]3CC[C@H]2C3)CC1 [Compound 302]
4. Clc1cccc(C2CCN(C3CC4CCC(C4)C3)CC2)c1 (stereo not drawn) [Compound 133]

Reply:
["25 to 100%", "25 to 100%", "25 to 100%", "25 to 100%"]

---

Please go through the items and note down their Emax.
target: M1 muscarinic receptor (Homo sapiens); construct: expressed in transfected cells; host or cells: CHO (M1-CHO); assay: Functional mobilization of intracellular calcium (FLIPR), M1-CHO cells; assay type: cell-based; conditions: 100% efficacy is the maximum response obtained with the Carbachol control

The cases that follow already have their Emax on record.
# compound, quantity-name, recorded-value
measured = [
    ("COc1ccc(-c2ccsc2)cc1C1CCN([C@@H]2C[C@H]3CC[C@H]2C3)CC1", "Emax", "< 25%"),
    ("COc1ccc(C#CC2(O)CCCCC2)cc1C1CCN([C@@H]2C[C@H]3CC[C@H]2C3)CC1", "Emax", "< 25%"),
]

Lab note: each compound below needs its Emax filled in.
1. COc1ccc(C(=O)c2ccoc2)cc1C1CCN([C@@H]2C[C@H]3CC[C@H]2C3)CC1
2. CNC(=O)c1ccc(-c2ccc(OC)c(C3CCN([C@H]4C[C@H]5CC[C@H]4C5)CC3)c2)cc1
3. COc1ccc(Cl)cc1C1CCN(C2(C)CCOCC2)CC1

Reply:
< 25%
< 25%
25 to 100%

Lab note: each compound below needs its Emax filled in.
1. COc1ccccc1C1(C#N)CCN(C2CC3CCC(C3)C2)CC1 (centres unmarked)
2. COc1ccc(Cl)cc1C1CCN(C2CCSCC2)CC1
3. COc1ccc(Cl)cc1C1(O)CCN(C2CCCCCC2)CC1

Reply:
["25 to 100%", "25 to 100%", "< 25%"]

---

Biological target: M2 muscarinic receptor (Homo sapiens, UniProt P08172)
Construct: expressed in transfected cells; host or cells: CHO (M2-CHO)
Sequence (P08172 1-466): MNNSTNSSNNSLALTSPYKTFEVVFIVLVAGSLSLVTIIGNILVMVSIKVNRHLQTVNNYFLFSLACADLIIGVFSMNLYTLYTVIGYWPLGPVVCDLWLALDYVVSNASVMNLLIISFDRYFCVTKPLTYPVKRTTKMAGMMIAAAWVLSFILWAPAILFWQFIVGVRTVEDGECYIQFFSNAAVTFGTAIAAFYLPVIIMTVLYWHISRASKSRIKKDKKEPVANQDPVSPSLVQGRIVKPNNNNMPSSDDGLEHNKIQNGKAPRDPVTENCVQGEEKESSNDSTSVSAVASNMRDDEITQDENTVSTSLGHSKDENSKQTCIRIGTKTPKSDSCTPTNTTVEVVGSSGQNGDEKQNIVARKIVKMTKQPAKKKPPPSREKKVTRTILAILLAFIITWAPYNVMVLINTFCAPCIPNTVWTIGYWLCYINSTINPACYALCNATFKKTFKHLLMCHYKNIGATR
Experiment: Functional mobilization of intracellular calcium (FLIPR), M2-CHO cells
Assay type: cell-based
Conditions: 100% efficacy = maximum response obtained with the Carbachol control
Please go through the items and note down their Emax.

The cases that follow already have their Emax on record.
# compound, Emax
data = [
    ("Clc1ccc(-c2ccccc2C2CCN([C@H]3C[C@H]4CC[C@H]3C4)CC2)cc1", "25 to 100%"),
    ("COc1ccc(-c2cccnc2)cc1C1CCN([C@H]2C[C@H]3CC[C@H]2C3)CC1", "< 25%"),
    ("COc1ccc(Cl)cc1C1CCN(C2(C)CCCCC2)CC1", "25 to 100%"),
    ("COc1ccc(-c2ccc(C(=O)NCCCO)cc2)cc1C1CCN(C2CCOCC2)CC1", "< 25%"),
    ("Cc1cccc(C2CCN(C3C[C@H]4CC[C@H]3C4)CC2)c1C (some centres unmarked)", "< 25%"),
    ("COc1ccc(-c2ccncc2)cc1C1CCN([C@@H]2C[C@@H]3CC[C@H]2C3)CC1", "< 25%"),
]

Lab note: each compound below needs its Emax filled in.
1. CCCC1CCC(N2CCC(c3cc(F)ccc3OC)CC2)CC1 (centres unmarked)
2. COc1ccc(-c2ccc(C#N)cc2)cc1C1CCN(C2CCOCC2)CC1

Reply:
1: 25 to 100%; 2: < 25%
